Where do the numbers come from? From ChEMBL document CHEMBL3352612.

target.under.test: Sodium-dependent noradrenaline transporter (Homo sapiens)
Sequence (P23975 whole entry): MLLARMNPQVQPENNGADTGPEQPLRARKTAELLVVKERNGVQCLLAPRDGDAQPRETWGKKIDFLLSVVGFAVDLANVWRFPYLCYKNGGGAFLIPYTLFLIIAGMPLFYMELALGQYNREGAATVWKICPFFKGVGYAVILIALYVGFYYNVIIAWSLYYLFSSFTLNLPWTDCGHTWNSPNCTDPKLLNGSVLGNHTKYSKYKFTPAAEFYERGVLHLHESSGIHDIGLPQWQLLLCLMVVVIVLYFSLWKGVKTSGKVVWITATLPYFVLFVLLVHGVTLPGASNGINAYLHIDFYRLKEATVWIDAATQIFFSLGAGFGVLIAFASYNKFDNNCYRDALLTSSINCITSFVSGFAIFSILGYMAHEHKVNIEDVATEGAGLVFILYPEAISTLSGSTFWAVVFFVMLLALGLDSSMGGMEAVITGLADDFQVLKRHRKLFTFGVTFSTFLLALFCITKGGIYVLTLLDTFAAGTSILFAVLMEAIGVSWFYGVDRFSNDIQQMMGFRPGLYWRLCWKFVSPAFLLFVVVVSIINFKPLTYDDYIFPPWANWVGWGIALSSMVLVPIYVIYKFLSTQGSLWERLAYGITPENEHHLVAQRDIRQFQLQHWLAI
assay.procedure: Inhibition of [3H]norepinephrine reuptake at human NET expressed in CHO cells after 45 mins by scintillation counting
Format: cell-based
pIC50: −log10 of the molar value.
We use 7 as the dividing line for pIC50: on or above the line is yes, below is no.

>  <molecule>
C[C@H]1NCCCN(c2ccc3ccccc3c2)C1=O

>  <target.under.test>
Sodium-dependent noradrenaline transporter (Homo sapiens)

>  <label.value>
no

$$$$
>  <molecule>
O=C1CNCC(F)(F)CN1c1ccc(Cl)c(Cl)c1

>  <target.under.test>
Sodium-dependent noradrenaline transporter (Homo sapiens)

>  <label.value>
no

$$$$
>  <molecule>
CN1CCCN(c2ccc(Cl)c(Cl)c2)C(=O)C1.Cl

>  <target.under.test>
Sodium-dependent noradrenaline transporter (Homo sapiens)

>  <label.value>
no

$$$$
>  <molecule>
CC1CCN(c2ccc(Cl)c(Cl)c2)C(=O)CN1.Cl (racemic)

>  <target.under.test>
Sodium-dependent noradrenaline transporter (Homo sapiens)

>  <label.value>
no

$$$$
>  <molecule>
CC1NCCCN(c2ccc(Cl)c(Cl)c2)C1=O.Cl (racemic)

>  <target.under.test>
Sodium-dependent noradrenaline transporter (Homo sapiens)

>  <label.value>
yes

$$$$
>  <molecule>
C[C@@H]1NCCCN(c2ccc3ccccc3c2)C1=O.Cl

>  <target.under.test>
Sodium-dependent noradrenaline transporter (Homo sapiens)

>  <label.value>
yes

$$$$
>  <molecule>
CC1CCNCC(=O)N1c1ccc(Cl)c(Cl)c1 (racemic)

>  <target.under.test>
Sodium-dependent noradrenaline transporter (Homo sapiens)

>  <label.value>
no

$$$$
>  <molecule>
Cl.O=C1CNCCCN1c1ccc(Cl)c(Cl)c1

>  <target.under.test>
Sodium-dependent noradrenaline transporter (Homo sapiens)

>  <label.value>
yes

$$$$
>  <molecule>
CC1CNCC(=O)N(c2ccc(Cl)c(Cl)c2)C1 (racemic)

>  <target.under.test>
Sodium-dependent noradrenaline transporter (Homo sapiens)

>  <label.value>
no

$$$$
>  <molecule>
CC1NCCCN(c2ccc3ccccc3c2)C1=O.Cl (racemic)

>  <target.under.test>
Sodium-dependent noradrenaline transporter (Homo sapiens)

>  <label.value>
yes

$$$$
>  <molecule>
CCC1NCCCN(c2ccc(Cl)c(Cl)c2)C1=O.Cl (racemic)

>  <target.under.test>
Sodium-dependent noradrenaline transporter (Homo sapiens)

>  <label.value>
yes

$$$$
>  <molecule>
CCC1NCCCN(c2ccc3ccccc3c2)C1=O.Cl (racemic)

>  <target.under.test>
Sodium-dependent noradrenaline transporter (Homo sapiens)

>  <label.value>
yes

$$$$

* * *

# IC50 values compiled below
target.under.test: Sodium-dependent dopamine transporter (Homo sapiens, UniProt Q01959)
Sequence (Q01959 whole entry): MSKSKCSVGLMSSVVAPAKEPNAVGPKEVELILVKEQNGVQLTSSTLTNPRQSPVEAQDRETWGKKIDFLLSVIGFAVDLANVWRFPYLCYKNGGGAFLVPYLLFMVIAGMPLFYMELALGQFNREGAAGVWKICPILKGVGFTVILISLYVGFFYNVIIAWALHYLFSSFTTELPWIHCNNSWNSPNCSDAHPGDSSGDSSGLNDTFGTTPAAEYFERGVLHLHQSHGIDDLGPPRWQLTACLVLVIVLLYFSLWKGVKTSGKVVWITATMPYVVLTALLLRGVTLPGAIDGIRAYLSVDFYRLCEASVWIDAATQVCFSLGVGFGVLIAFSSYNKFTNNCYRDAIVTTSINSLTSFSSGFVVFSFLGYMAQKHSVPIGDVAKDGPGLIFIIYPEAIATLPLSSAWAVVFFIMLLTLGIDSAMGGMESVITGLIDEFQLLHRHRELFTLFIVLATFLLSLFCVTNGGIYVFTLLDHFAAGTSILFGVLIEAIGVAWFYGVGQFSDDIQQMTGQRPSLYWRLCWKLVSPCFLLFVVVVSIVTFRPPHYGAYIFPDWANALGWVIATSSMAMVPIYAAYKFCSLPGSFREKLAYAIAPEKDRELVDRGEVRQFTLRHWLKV
assay.procedure: Inhibition of [3H]dopamine reuptake at human DAT expressed in CHO cells after 60 mins by scintillation counting

>  <compound>
CC1NCCCN(c2ccc3ccccc3c2)C1=O.Cl (racemic)

>  <target.under.test>
Sodium-dependent dopamine transporter (Homo sapiens, UniProt Q01959)

>  <comparative.sign>
=

>  <IC50 [nM]>
340

$$$$
>  <compound>
CC1CCNCC(=O)N1c1ccc(Cl)c(Cl)c1 (racemic)

>  <target.under.test>
Sodium-dependent dopamine transporter (Homo sapiens, UniProt Q01959)

>  <comparative.sign>
=

>  <IC50 [nM]>
4500

$$$$
>  <compound>
C[C@@H]1NCCCN(c2ccc3ccccc3c2)C1=O.Cl

>  <target.under.test>
Sodium-dependent dopamine transporter (Homo sapiens, UniProt Q01959)

>  <comparative.sign>
=

>  <IC50 [nM]>
160

$$$$
>  <compound>
CC1CNCC(=O)N(c2ccc(Cl)c(Cl)c2)C1 (racemic)

>  <target.under.test>
Sodium-dependent dopamine transporter (Homo sapiens, UniProt Q01959)

>  <comparative.sign>
=

>  <IC50 [nM]>
4000

$$$$
>  <compound>
CC1NCCCN(c2ccc(Cl)c(Cl)c2)C1=O.Cl (racemic)

>  <target.under.test>
Sodium-dependent dopamine transporter (Homo sapiens, UniProt Q01959)

>  <comparative.sign>
=

>  <IC50 [nM]>
470

$$$$
>  <compound>
O=C1CNCC2(CC2)CN1c1ccc(Cl)c(Cl)c1

>  <target.under.test>
Sodium-dependent dopamine transporter (Homo sapiens, UniProt Q01959)

>  <comparative.sign>
=

>  <IC50 [nM]>
120

$$$$
>  <compound>
CN1CCCN(c2ccc(Cl)c(Cl)c2)C(=O)C1.Cl

>  <target.under.test>
Sodium-dependent dopamine transporter (Homo sapiens, UniProt Q01959)

>  <comparative.sign>
>

>  <IC50 [nM]>
10000

$$$$
>  <compound>
Cl.O=C1CNCCCN1c1ccc(Cl)c(Cl)c1

>  <target.under.test>
Sodium-dependent dopamine transporter (Homo sapiens, UniProt Q01959)

>  <comparative.sign>
=

>  <IC50 [nM]>
420

$$$$
>  <compound>
C[C@H]1NCCCN(c2ccc3ccccc3c2)C1=O

>  <target.under.test>
Sodium-dependent dopamine transporter (Homo sapiens, UniProt Q01959)

>  <comparative.sign>
>

>  <IC50 [nM]>
10000

$$$$
>  <compound>
CC1CCN(c2ccc(Cl)c(Cl)c2)C(=O)CN1.Cl (racemic)

>  <target.under.test>
Sodium-dependent dopamine transporter (Homo sapiens, UniProt Q01959)

>  <comparative.sign>
>

>  <IC50 [nM]>
10000

$$$$
>  <compound>
O=C1CNCC(F)(F)CN1c1ccc(Cl)c(Cl)c1

>  <target.under.test>
Sodium-dependent dopamine transporter (Homo sapiens, UniProt Q01959)

>  <comparative.sign>
=

>  <IC50 [nM]>
8100

$$$$
>  <compound>
CCC1NCCCN(c2ccc(Cl)c(Cl)c2)C1=O.Cl (racemic)

>  <target.under.test>
Sodium-dependent dopamine transporter (Homo sapiens, UniProt Q01959)

>  <comparative.sign>
=

>  <IC50 [nM]>
190

$$$$
>  <compound>
CCC1NCCCN(c2ccc3ccccc3c2)C1=O.Cl (racemic)

>  <target.under.test>
Sodium-dependent dopamine transporter (Homo sapiens, UniProt Q01959)

>  <comparative.sign>
=

>  <IC50 [nM]>
130

$$$$

* * *

target.under.test: Sodium-dependent serotonin transporter (Homo sapiens)
Sequence (P31645 whole entry): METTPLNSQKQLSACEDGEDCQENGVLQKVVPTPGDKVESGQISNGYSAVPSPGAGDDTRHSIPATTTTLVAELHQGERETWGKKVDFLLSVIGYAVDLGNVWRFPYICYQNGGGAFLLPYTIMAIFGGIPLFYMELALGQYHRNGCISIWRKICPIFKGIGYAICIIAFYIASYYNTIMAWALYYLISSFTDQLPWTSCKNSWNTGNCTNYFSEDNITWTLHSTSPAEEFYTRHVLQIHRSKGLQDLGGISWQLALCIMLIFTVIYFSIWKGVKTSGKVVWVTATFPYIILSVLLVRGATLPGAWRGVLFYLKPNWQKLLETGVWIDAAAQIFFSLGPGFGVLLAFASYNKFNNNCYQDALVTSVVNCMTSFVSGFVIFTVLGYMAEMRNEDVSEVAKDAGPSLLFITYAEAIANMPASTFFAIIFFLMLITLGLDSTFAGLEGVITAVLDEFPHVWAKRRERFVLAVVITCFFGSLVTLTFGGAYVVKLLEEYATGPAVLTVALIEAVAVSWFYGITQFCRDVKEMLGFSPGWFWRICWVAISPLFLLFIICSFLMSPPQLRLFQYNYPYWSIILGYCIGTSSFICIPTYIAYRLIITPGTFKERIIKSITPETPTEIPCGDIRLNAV
assay.procedure: Inhibition of [3H]serotonin reuptake at human SERT expressed in CHO cells after 20 mins by scintillation counting
# IC50 values compiled below
experimental.readout: IC50 (nM)

>  <compound>
C[C@@H]1NCCCN(c2ccc3ccccc3c2)C1=O.Cl

>  <experimental.readout>
IC50

>  <reading>
83

$$$$
>  <compound>
CC1NCCCN(c2ccc(Cl)c(Cl)c2)C1=O.Cl (racemic)

>  <experimental.readout>
IC50

>  <reading>
530

$$$$
>  <compound>
CC1CCNCC(=O)N1c1ccc(Cl)c(Cl)c1 (racemic)

>  <experimental.readout>
IC50

>  <reading>
1900

$$$$
>  <compound>
CCC1NCCCN(c2ccc(Cl)c(Cl)c2)C1=O.Cl (racemic)

>  <experimental.readout>
IC50

>  <reading>
570

$$$$
>  <compound>
CC1CCN(c2ccc(Cl)c(Cl)c2)C(=O)CN1.Cl (racemic)

>  <experimental.readout>
IC50

>  <reading>
4300

$$$$
>  <compound>
CC1CNCC(=O)N(c2ccc(Cl)c(Cl)c2)C1 (racemic)

>  <experimental.readout>
IC50

>  <reading>
2200

$$$$
>  <compound>
C[C@H]1NCCCN(c2ccc3ccccc3c2)C1=O

>  <experimental.readout>
IC50

>  <reading>
260

$$$$
>  <compound>
O=C1CNCC(F)(F)CN1c1ccc(Cl)c(Cl)c1

>  <experimental.readout>
IC50

>  <reading>
1300

$$$$
>  <compound>
CCC1NCCCN(c2ccc3ccccc3c2)C1=O.Cl (racemic)

>  <experimental.readout>
IC50

>  <reading>
88

$$$$
>  <compound>
CC1NCCCN(c2ccc3ccccc3c2)C1=O.Cl (racemic)

>  <experimental.readout>
IC50

>  <reading>
200

$$$$
>  <compound>
CN1CCCN(c2ccc(Cl)c(Cl)c2)C(=O)C1.Cl

>  <experimental.readout>
IC50

>  <reading>
5500

$$$$
>  <compound>
Cl.O=C1CNCCCN1c1ccc(Cl)c(Cl)c1

>  <experimental.readout>
IC50

>  <reading>
50

$$$$
>  <compound>
O=C1CNCC2(CC2)CN1c1ccc(Cl)c(Cl)c1

>  <experimental.readout>
IC50

>  <reading>
2200

$$$$
